TESTED ON: T1, hUPF1 (full-length) (Homo sapiens, UniProt Q92900-2 1-1118)
T1 sequence: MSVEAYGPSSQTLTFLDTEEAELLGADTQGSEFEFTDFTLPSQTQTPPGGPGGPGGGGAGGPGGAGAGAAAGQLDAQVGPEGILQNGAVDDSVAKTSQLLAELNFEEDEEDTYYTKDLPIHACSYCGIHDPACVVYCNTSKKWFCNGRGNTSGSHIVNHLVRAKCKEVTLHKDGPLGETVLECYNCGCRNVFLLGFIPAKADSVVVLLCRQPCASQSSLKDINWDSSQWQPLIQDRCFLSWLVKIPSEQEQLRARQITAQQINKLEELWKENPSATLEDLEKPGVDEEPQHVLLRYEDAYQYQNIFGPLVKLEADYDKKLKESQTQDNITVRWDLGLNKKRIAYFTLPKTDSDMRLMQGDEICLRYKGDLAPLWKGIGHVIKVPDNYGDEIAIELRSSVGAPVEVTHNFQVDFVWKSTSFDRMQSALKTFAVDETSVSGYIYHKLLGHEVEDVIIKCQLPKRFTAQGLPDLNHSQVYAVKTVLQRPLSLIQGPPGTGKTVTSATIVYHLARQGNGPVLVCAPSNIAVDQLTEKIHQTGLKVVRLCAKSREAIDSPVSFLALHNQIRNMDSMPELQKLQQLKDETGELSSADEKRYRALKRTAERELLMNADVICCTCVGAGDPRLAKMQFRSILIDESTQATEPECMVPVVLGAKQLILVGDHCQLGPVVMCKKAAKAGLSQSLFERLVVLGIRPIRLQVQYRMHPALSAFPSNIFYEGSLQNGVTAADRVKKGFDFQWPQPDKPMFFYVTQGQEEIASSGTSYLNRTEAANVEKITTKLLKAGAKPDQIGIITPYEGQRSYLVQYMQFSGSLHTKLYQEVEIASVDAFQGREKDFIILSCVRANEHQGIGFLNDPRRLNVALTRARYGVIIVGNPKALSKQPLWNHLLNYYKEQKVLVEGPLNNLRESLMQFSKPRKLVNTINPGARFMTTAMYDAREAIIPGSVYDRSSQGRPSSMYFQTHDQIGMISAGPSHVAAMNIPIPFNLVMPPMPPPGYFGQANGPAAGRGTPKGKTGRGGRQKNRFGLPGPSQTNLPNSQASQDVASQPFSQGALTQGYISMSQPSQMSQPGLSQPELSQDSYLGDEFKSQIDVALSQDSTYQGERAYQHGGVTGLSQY
METHOD: MST; second experimental group; fit up to 156 nM; 25 mM HEPES-NaOH pH 7.2, 135 mM NaCl, 2 mM DTT, 1 mg/ml acetylated BSA, 0.1% NP40, 20 min; EMSA 20 C, MST 22 C (20 nM DNA); no nucleotide cofactor or Mg2+ unles
PROTOCOL CONDITIONS: protein: recombinant; tags: GST and His tags removed (thrombin, TEV); residual ENLYFQ linker likely at C-terminus; label: 5' Alexa 647
MEASUREMENT TYPE: Kd (nM)
Note: unit nM is implicit; provide only the numeric part.

Could you tell me which Kd is on file for TTTTTTTTTTTTTTTTTTTTTTTTTTTTTTTTTTT (ssDNA) [d(T)35-Alexa647] ?
6.01
